Hello, the source for this data is patent US20260193265A1, in case you need it.

Kindly state Dark toxicity μM (IC10) for each of the entries shown.
# Tested on: Human ovarian cancer cell line SKOV3
# conditions: human, 24 h
Counter-ions that a name gives are not always drawn.
Give bare numbers, in µM.

Example results:
compound | Dark toxicity μM (IC10), µM
C=Cc1c(C)c2cc3nc(c(C)c4cc(C)c(cc5nc(cc1[nH]2)C(C)=C5CC)[nH]4)[C@@H](CCCNC(=O)[C@@H](N)C(C)C)[C@@H]3C [Compound 8, hydrochloride] | 11.89
C=Cc1c(C)c2cc3nc(c(C)c4cc(C)c(cc5nc(cc1[nH]2)C(C)=C5CC)[nH]4)[C@@H](CCCOC(C)=O)[C@@H]3C [Compound 2] | 66.93
C=Cc1c(C)c2cc3nc(c(C)c4cc(C)c(cc5nc(cc1[nH]2)C(C)=C5CC)[nH]4)[C@@H](CCCS[C@@H]1O[C@H](CO)[C@@H](O)[C@H](O)[C@H]1O)[C@@H]3C [Compound 5] | 13.18

Batch request: Dark toxicity μM (IC10) per item, same order as input.
1. C=Cc1c(C)c2cc3nc(c(C)c4cc(C)c(cc5nc(cc1[nH]2)C(C)=C5CC)[nH]4)[C@@H](CCCO)[C@@H]3C [Compound 1]
2. C=Cc1c(C)c2cc3nc(c(CC(=O)N[C@@H](CC(=O)O)C(=O)O)c4[nH]c(cc5nc(cc1[nH]2)C(C)=C5CC)c(C)c4C(=O)O)[C@@H](CCC(=O)O)[C@@H]3C [Talaporfin sodium, reference compound]
3. C=Cc1c(C)c2cc3nc(c(C)c4cc(C)c(cc5nc(cc1[nH]2)C(C)=C5CC)[nH]4)[C@@H](CCCN)[C@@H]3C [Compound 7, phyllochlorin 3-aminopropyl]
4. C=Cc1c(C)c2cc3nc(c(C)c4cc(C)c(cc5nc(cc1[nH]2)C(C)=C5CC)[nH]4)[C@@H](CCCSCCCS[C@@H]1O[C@H](CO)[C@@H](O)[C@H](O)[C@H]1O)[C@@H]3C [Compound 4]

[46.10, 11.10, 11.55, 23.13]
